The measurements presented in this section are drawn from paper PMC4025572.

test system: human indolethylamine-N-methyltransferase (hINMT) (Homo sapiens)
Sequence (O95050 whole entry): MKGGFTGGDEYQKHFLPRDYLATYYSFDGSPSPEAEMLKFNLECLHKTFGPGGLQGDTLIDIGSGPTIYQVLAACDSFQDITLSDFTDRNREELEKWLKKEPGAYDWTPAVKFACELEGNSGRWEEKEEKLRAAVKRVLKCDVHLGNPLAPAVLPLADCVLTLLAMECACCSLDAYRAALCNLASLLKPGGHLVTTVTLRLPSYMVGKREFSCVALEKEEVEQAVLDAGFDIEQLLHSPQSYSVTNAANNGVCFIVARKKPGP
procedure summary: radiometric […]SAM methyltransferase assay, pure hINMT
Assay type: biochemical
pIC50: −log10 of the molar value.
parameter: pIC50

q: Tell me the measured pIC50 of "CN(C)CCCNCCc1c[nH]c2ccccc12" , please.
a: ~3.00
